# Tested on: Fibroblast
# measurementNotes: Multiplex assay against human fibroblast
# Assay type: toxicity, cell-based
# assayContext: 24 h, 10 µM, compound concentration 10 uM
Listed below: Population Membrane Permeable-Phenotype (%) values for each entry.
Give the value in % but do not write % after it.

Look over these answered cases.
Identify the reported Population Membrane Permeable-Phenotype (%) for the following entry. Oc1c(CN2CCN(c3ccccn3)CC2)cc(Cl)c2cccnc12
1

Identify the reported Population Membrane Permeable-Phenotype (%) for the following entry. O=c1nc2[nH]c3ccccc3nc-2c(=O)[nH]1
0

---
Identify the reported Population Membrane Permeable-Phenotype (%) for the following entry. COC(=O)C1=C(C)NC(C)=C(C(=O)OC(C)C)C1c1cccc2nonc12 (centres undefined)
4.12

Identify the reported Population Membrane Permeable-Phenotype (%) for the following entry. Cc1cnc(-c2cc(N3CCN(C(=O)CCS(C)(=O)=O)CC3)ncc2Cl)c(C)c1
2
